B1: SERPINB5 (parent)
chain: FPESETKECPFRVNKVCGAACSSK

- Variants of: B1
- Assay details: protein stability index of a GFP-peptide fusion (GPS, HEK-293T) (PSI 1-6); higher = more stable;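 further: lentivirally expressed fusions sorted by FACS into six bins by GFP to DsRed ratio, PSI derived from sequencing read proportions per bin multiplied by bin number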
- Measurement parameters: c terminus: a fixed tail appended
Reported metric: protein stability index
Give bare numbers.

Solved cases below.
{"Mutant id": "K15A", "protein stability index": 3.17}
{"Mutant id": "S23T", "protein stability index": 2.19}
{"Mutant id": "V13W", "protein stability index": 2.19}
{"Mutant id": "E5D", "protein stability index": 1.92}
{"Mutant id": "S4C", "protein stability index": 3.16}
{"Mutant id": "T6P", "protein stability index": 2.91}

State the recorded protein stability index for every item in the following list.
1. P2D
2. E3H
3. A19N
4. K7A
5. P10Y
6. N14M
7. A19Y

[A]
[4.73, 1.55, 2.61, 2.43, 2.3, 2.98, 2.29]

State the recorded protein stability index for every item in the following list.
1. F11M
2. P2R
3. S4G
4. F1M

[A]
[4.48, 4.19, 2.25, 4.85]

State the recorded protein stability index for every item in the following list.
1. V13C
2. G18Y
3. T6F

[A]
3.09
2.09
2.23

State the recorded protein stability index for every item in the following list.
1. G18M
2. F11S
3. A19I
4. K24F

[A]
2.56
5.28
2.63
2.02

State the recorded protein stability index for every item in the following list.
1. V13Q
2. C17A
3. A19V
4. K15Y
5. E3V
6. P2L

[A]
1. 4.03
2. 3.29
3. 2.41
4. 2.4
5. 1.99
6. 3.57

[Q] Would you kindly share the measured protein stability index for `E5I` ?
[A] 1.8
